target_or_system: human LPA1 (Homo sapiens, UniProt Q92633)
Construct: expressed in transfected cells; host or cells: CHO-K1
Sequence (Q92633 whole entry): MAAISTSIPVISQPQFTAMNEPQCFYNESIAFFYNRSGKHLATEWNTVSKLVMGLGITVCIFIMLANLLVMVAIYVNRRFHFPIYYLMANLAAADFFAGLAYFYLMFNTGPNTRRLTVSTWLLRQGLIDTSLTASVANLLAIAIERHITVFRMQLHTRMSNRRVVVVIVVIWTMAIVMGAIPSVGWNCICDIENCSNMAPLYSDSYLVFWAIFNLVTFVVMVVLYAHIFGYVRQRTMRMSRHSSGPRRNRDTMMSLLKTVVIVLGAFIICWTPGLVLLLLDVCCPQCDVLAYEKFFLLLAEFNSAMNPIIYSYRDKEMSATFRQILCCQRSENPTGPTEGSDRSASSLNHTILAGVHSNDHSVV
protocol: In vitro LPA1 calcium flux antagonist assay - Bioduro protocol
Assay type: cell-based
experimental_conditions: Table B3; CHO-K1 cells overexpressing human LPA1 and G15a, LPA challenge at EC80; read-out: Activity (IC50 class)
Procedure: In Vitro LPA1 Calcium Flux Antagonist Assay—Bioduro Protocol CHO-K1 cells overexpressing human LPA1 and G15a were seeded at a total volume of 20 μL (15000 cells/well) into Matrigel pre-coated 384-well plates (corning −3764) and incubated at 37° C. […] Calcium mobilization was measured on a FLIPR Tetra (MSD). […] Percentage inhibition is calculated using the following formula: % Inhibition=100%×(1−(mean RFU of test sample−mean RFU of DMSO)/(mean RFU of LPA control−mean RFU of DMSO)). […]
// reported IC50 for each item listed

> print(dat)
                              record.smiles  reported.metric  reported.value
1  CCOc1cncc(-c2ccc(NC3(C(=O)O)CCOCC3)cc2COC2Cc3ccccc3C2)c1C             IC50        < 100 nM
2  COc1cc(-c2ccc(NC3(C(=O)O)CCOCC3)cc2COC2CCCC2)c(C)c(OC)c1C             IC50        < 100 nM
3  COc1cc(-c2ccc(NC3(C(=O)O)CCC(F)(F)CC3)cc2COC2CC2)cc(OC)c1C             IC50        < 100 nM

Now consider the entry below.
[Q] State its IC50: COc1cc(-c2ccc(CC3(C(=O)O)CCOCC3)cc2COC2CCCC2)c(Cl)c(OC)c1C
[A] > 1000 nM

====

target_or_system: human LPA1 (Homo sapiens, UniProt Q92633)
Construct: expressed in transfected cells; host or cells: CHO-K1
protocol: In vitro LPA1 calcium flux antagonist assay - Bioduro protocol
Type: cell-based
experimental_conditions: CHO-K1 cells overexpressing human LPA1 and G15a; LPA challenge at EC80; calcium mobilization on FLIPR Tetra; read-out: IC50
reported_metric: IC50 (µM)

> print(dat)
                                   compound  unit.of.measure  reported.value
1  COc1cc(-c2ccc(NC3(C(=O)O)CCOCC3)cc2COCC(C)C)c(C)c(OC)c1C [Compound 397]               µM           0.073
2  O=C(O)C1(Nc2ccc(-c3cccc(OC4CC4)c3F)c(COC3CCCC3)c2)CCOCC1 [Compound 265]               µM           0.012
3  COc1cc(-c2ccc(C3(C(=O)O)CC3)cc2COC2Cc3ccccc3C2)cc(OC)c1C [Compound 118]               µM          0.0964
4  COc1cc(-c2ccc(NC3(C(=O)O)CCOCC3)cc2CCC2(C)Oc3ccccc3O2)cc(OC)c1C [Compound 132]               µM          0.0201

[I] COc1cc(-c2ccc(NC3(C(=O)O)CCN(C(C)=O)CC3)cc2COC2CCCC2)cc(OC)c1C [Compound 139]
[II] CCc1c(-c2ccc(NC3(C(=O)O)CCOCC3)cc2COC2CCCC2)cc(OC)c(C)c1OC [Compound 203]
[Q] Of I and II , whose reported IC50 is numerically smaller? Response format: the label of the selected entry.
[A] II
